Here's what we have: IC50 numbers for UniProtKB P09619.
Sequence (P09619 33-1106): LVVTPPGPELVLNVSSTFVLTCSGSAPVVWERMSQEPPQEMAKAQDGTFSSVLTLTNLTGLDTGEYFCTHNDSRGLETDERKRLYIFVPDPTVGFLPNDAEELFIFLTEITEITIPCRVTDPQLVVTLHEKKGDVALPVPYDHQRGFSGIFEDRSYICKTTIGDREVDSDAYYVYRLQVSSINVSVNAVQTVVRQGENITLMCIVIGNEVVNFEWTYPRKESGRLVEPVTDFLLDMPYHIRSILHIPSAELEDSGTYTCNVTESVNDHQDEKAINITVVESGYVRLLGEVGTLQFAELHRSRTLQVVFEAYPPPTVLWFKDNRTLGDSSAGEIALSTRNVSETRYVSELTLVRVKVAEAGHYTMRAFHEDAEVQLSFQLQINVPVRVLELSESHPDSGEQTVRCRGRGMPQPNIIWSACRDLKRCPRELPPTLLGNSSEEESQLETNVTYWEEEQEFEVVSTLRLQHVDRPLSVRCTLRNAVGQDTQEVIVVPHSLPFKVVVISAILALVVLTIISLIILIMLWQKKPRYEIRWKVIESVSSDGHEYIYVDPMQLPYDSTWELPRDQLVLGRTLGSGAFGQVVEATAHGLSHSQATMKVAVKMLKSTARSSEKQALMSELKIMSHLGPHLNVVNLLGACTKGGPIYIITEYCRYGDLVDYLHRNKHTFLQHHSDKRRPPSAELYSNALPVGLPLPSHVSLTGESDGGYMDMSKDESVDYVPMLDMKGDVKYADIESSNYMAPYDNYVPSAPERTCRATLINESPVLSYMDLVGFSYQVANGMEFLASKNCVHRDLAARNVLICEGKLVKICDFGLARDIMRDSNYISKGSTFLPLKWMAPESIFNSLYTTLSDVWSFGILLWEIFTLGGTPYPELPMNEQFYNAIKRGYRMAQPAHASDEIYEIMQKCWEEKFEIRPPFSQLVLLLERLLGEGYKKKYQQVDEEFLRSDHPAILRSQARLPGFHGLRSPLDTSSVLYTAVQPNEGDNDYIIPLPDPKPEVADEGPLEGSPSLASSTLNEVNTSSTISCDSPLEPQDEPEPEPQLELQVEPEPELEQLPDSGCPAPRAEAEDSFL

{"Molecule": "COc1cc2nccc(Oc3ccc(NC(=S)NCC(F)F)c(Cl)c3)c2cc1C(N)=O [Example 12]", "IC50": "50 to 200 nM"}
{"Molecule": "COc1cc2nccc(Oc3cc(F)c(NC(=S)N4CC(F)(F)C4)c(F)c3)c2cc1C(N)=O [Example 90]", "IC50": "200 to 1000 nM"}
{"Molecule": "COc1cc2nccc(Oc3ccc(NC(=S)N4CC(O)C4)c(Cl)c3)c2cc1C(N)=O [Example 69]", "IC50": "50 to 200 nM"}
{"Molecule": "Cn1cncc1-c1ccc2c(Oc3ccc(NC(=O)NC4CC4)c(Cl)c3F)ccnc2c1 [Example 215]", "IC50": "50 to 200 nM"}
{"Molecule": "COc1cc2nccc(Oc3ccc(Nc4c(NCCc5ccccc5)c(=O)c4=O)c(Cl)c3)c2cc1C(N)=O [Example 154]", "IC50": "200 to 1000 nM"}
